Below: a set of entries, each annotated with reported MIC of antibiotics.
# System: E. coli 005
# measurement-context: E. coli 005; CAMHB, 37°C, 16–20 h
endpoint-label: MIC of antibiotics (µg/mL)

1) CC(C)(O/N=C(\C(=O)N[C@@H]1C(=O)N2C(C(=O)[O-])=C(C[n+]3ccccc3)CS[C@H]12)c1csc(N)n1)C(=O)O [Cefaz, ceftazidime, reference compound] ... 0.25
2) O=C(N[C@H](CO)[C@H](O)c1ccc([N+](=O)[O-])cc1)C(Cl)Cl [Chl, chloramphenicol, reference compound] ... 8
3) C[C@H]1[C@H](NC(=O)/C(=N\OC(C)(C)C(=O)O)c2csc(N)n2)C(=O)N1S(=O)(=O)O [Azt, aztreonam, reference compound] ... 0.5
4) CO/N=C(\C(=O)N[C@@H]1C(=O)N2C(C(=O)O)=C(COC(C)=O)CS[C@H]12)c1csc(N)n1 [Cefot, cefotaxime, reference compound] ... 0.25
5) CNC(C)C1CCC(N)C(OC2C(N)CC(N)C(OC3OCC(C)(O)C(NC)C3O)C2O)O1 (stereo not drawn) [Gen, gentamicin, reference compound] ... 0.25
6) C[C@@H](O)[C@H]1C(=O)N2C(C(=O)O)=C(S[C@@H]3CN[C@H](C(=O)N(C)C)C3)[C@H](C)[C@H]12 [Mer, meropenem, reference compound] ... 2

====

# Test system: C. auris CBS12373
# assay-summary: Broth microdilution MIC
# Format: cell-based, Candida auris
# measurement-context: CBS12373
Square brackets hold non-standard residues; d marks the D form. Peptide text beside a SMILES is read from it. Nspe(4-Br) = C[C@H](NCC(=O)O)c1ccc(Br)cc1; N(tridecyl)Gly = CCCCCCCCCCCCCNCC(=O)O; Nspe = C[C@H](NCC(=O)O)c1ccccc1; NDecylGly = CCCCCCCCCCNCC(=O)O; Nlys = NCCCCNCC(=O)O
Below: a set of entries, each annotated with reported MIC against C. auris.
endpoint-label: MIC against C. auris (µM)

1. CCCCCCCCCCCCCNCC(=O)N(CCCCN)CC(=O)N(CC(=O)N(CC(=O)N(CCCCN)CC(=O)N(CCCCN)CC(N)=O)[C@@H](C)c1ccccc1)[C@@H](C)c1ccccc1 [TM15] (H-[N(tridecyl)Gly][Nlys][Nspe][Nspe][Nlys][Nlys]-NH2) ... 4.0
2. C[C@@H](c1ccccc1)N(CC(N)=O)C(=O)CN(C(=O)CN(CCCCN)C(=O)CN(C(=O)CN(C(=O)CN(CCCCN)C(=O)CN(C(=O)CN(C(=O)CN(CCCCN)C(=O)CN(C(=O)CN(C(=O)CNCCCCN)[C@@H](C)c1ccccc1)[C@@H](C)c1ccccc1)[C@@H](C)c1ccccc1)[C@@H](C)c1ccccc1)[C@@H](C)c1ccccc1)[C@@H](C)c1ccccc1)[C@@H](C)c1ccccc1 [TM1] (H-[Nlys][Nspe][Nspe][Nlys][Nspe][Nspe][Nlys][Nspe][Nspe][Nlys][Nspe][Nspe]-NH2) ... 2.1
3. C[C@@H](c1ccc(Br)cc1)N(CC(=O)N(CCCCN)CC(=O)N(CC(=O)N(CC(=O)N(CCCCN)CC(N)=O)[C@@H](C)c1ccc(Br)cc1)[C@@H](C)c1ccc(Br)cc1)C(=O)CN(C(=O)CNCCCCN)[C@@H](C)c1ccc(Br)cc1 [TM14] (H-[Nlys][Nspe(4-Br)][Nspe(4-Br)][Nlys][Nspe(4-Br)][Nspe(4-Br)][Nlys]-NH2) ... 2.9
4. C[C@@H](c1ccc(Br)cc1)N(CC(=O)N(CCCCN)CC(=O)N(CC(=O)N(CC(=O)N(CCCCN)CC(N)=O)[C@@H](C)c1ccc(Br)cc1)[C@@H](C)c1ccccc1)C(=O)CN(C(=O)CNCCCCN)[C@@H](C)c1ccccc1 [TM12] (H-[Nlys][Nspe][Nspe(4-Br)][Nlys][Nspe][Nspe(4-Br)][Nlys]-NH2) ... 3.2
5. CCCCCCCCCCNCC(=O)N(CCCCN)CC(=O)N(CC(=O)N(CC(=O)N(CCCCN)CC(=O)N(CC(=O)N(CC(N)=O)[C@@H](C)c1ccccc1)[C@@H](C)c1ccccc1)[C@@H](C)c1ccccc1)[C@@H](C)c1ccccc1 [TM8] (H-[NDecylGly][Nlys][Nspe][Nspe][Nlys][Nspe][Nspe]-NH2) ... 3.5
6. C[C@@H](c1ccc(Br)cc1)N(CC(N)=O)C(=O)CN(C(=O)CN(CCCCN)C(=O)CN(C(=O)CN(C(=O)CNCCCCN)[C@@H](C)c1ccccc1)[C@@H](C)c1ccc(Br)cc1)[C@@H](C)c1ccccc1 [TM2] (H-[Nlys][Nspe][Nspe(4-Br)][Nlys][Nspe][Nspe(4-Br)]-NH2) ... 3.6

====

# Test system: E. coli 0015
# measurement-context: E. coli 0015; MHB (melimine/Mel4 with 0.2% BSA, 0.01% acetic acid); mean MIC
Square brackets hold non-standard residues; d marks the D form. Peptide text beside a SMILES is read from it. Nspe(4-Br) = C[C@H](NCC(=O)O)c1ccc(Br)cc1; Nspe = C[C@H](NCC(=O)O)c1ccccc1; NDecylGly = CCCCCCCCCCNCC(=O)O; Nlys = NCCCCNCC(=O)O
endpoint-label: MIC of peptidomimetics (µg/mL)

1. C[C@@H](c1ccccc1)N(CC(N)=O)C(=O)CN(C(=O)CN(CCCCN)C(=O)CN(C(=O)CN(C(=O)CN(CCCCN)C(=O)CN(C(=O)CN(C(=O)CN(CCCCN)C(=O)CN(C(=O)CN(C(=O)CNCCCCN)[C@@H](C)c1ccccc1)[C@@H](C)c1ccccc1)[C@@H](C)c1ccccc1)[C@@H](C)c1ccccc1)[C@@H](C)c1ccccc1)[C@@H](C)c1ccccc1)[C@@H](C)c1ccccc1 [TM1] (H-[Nlys][Nspe][Nspe][Nlys][Nspe][Nspe][Nlys][Nspe][Nspe][Nlys][Nspe][Nspe]-NH2) ... 31.3
2. C[C@@H](c1ccc(Br)cc1)N(CC(=O)N(CCCCN)CC(=O)N(CC(=O)N(CC(=O)N(CCCCN)CC(N)=O)[C@@H](C)c1ccc(Br)cc1)[C@@H](C)c1ccc(Br)cc1)C(=O)CN(C(=O)CNCCCCN)[C@@H](C)c1ccc(Br)cc1 [TM14] (H-[Nlys][Nspe(4-Br)][Nspe(4-Br)][Nlys][Nspe(4-Br)][Nspe(4-Br)][Nlys]-NH2) ... 31.3
3. CCCCCCCCCCNCC(=O)N(CCCCN)CC(=O)N(CC(=O)N(CC(=O)N(CCCCN)CC(=O)N(CC(=O)N(CC(N)=O)[C@@H](C)c1ccccc1)[C@@H](C)c1ccccc1)[C@@H](C)c1ccccc1)[C@@H](C)c1ccccc1 [TM8] (H-[NDecylGly][Nlys][Nspe][Nspe][Nlys][Nspe][Nspe]-NH2) ... 7.8

====

# System: En. cloacae 003
# measurement-context: En. cloacae 003; MHB (melimine/Mel4 with 0.2% BSA, 0.01% acetic acid); mean MIC
Square brackets hold non-standard residues; d marks the D form. Peptide text beside a SMILES is read from it. Nspe(4-Br) = C[C@H](NCC(=O)O)c1ccc(Br)cc1; N(tridecyl)Gly = CCCCCCCCCCCCCNCC(=O)O; Nspe = C[C@H](NCC(=O)O)c1ccccc1; Nlys = NCCCCNCC(=O)O
Below: a set of entries, each annotated with reported MIC of peptidomimetics.
endpoint-label: MIC of peptidomimetics (µg/mL)

1. CCCCCCCCCCCCCNCC(=O)N(CCCCN)CC(=O)N(CC(=O)N(CC(=O)N(CCCCN)CC(=O)N(CCCCN)CC(N)=O)[C@@H](C)c1ccccc1)[C@@H](C)c1ccccc1 [TM15] (H-[N(tridecyl)Gly][Nlys][Nspe][Nspe][Nlys][Nlys]-NH2) ... 62.5
2. C[C@@H](c1ccc(Br)cc1)N(CC(=O)N(CCCCN)CC(=O)N(CC(=O)N(CC(=O)N(CCCCN)CC(N)=O)[C@@H](C)c1ccc(Br)cc1)[C@@H](C)c1ccc(Br)cc1)C(=O)CN(C(=O)CNCCCCN)[C@@H](C)c1ccc(Br)cc1 [TM14] (H-[Nlys][Nspe(4-Br)][Nspe(4-Br)][Nlys][Nspe(4-Br)][Nspe(4-Br)][Nlys]-NH2) ... 62.5
3. C[C@@H](c1ccc(Br)cc1)N(CC(=O)N(CCCCN)CC(=O)N(CC(=O)N(CC(=O)N(CCCCN)CC(N)=O)[C@@H](C)c1ccc(Br)cc1)[C@@H](C)c1ccccc1)C(=O)CN(C(=O)CNCCCCN)[C@@H](C)c1ccccc1 [TM12] (H-[Nlys][Nspe][Nspe(4-Br)][Nlys][Nspe][Nspe(4-Br)][Nlys]-NH2) ... 3.9

====

# Tested on: En. cloacae 003
# measurement-context: En. cloacae 003; MHB (melimine/Mel4 with 0.2% BSA, 0.01% acetic acid); mean MIC
Square brackets hold non-standard residues; d marks the D form. Peptide text beside a SMILES is read from it. Nspe(4-Br) = C[C@H](NCC(=O)O)c1ccc(Br)cc1; Nspe = C[C@H](NCC(=O)O)c1ccccc1; NDecylGly = CCCCCCCCCCNCC(=O)O; Nlys = NCCCCNCC(=O)O
Below: a set of entries, each annotated with reported MIC of peptidomimetics.
endpoint-label: MIC of peptidomimetics (µg/mL)

1) C[C@@H](c1ccccc1)N(CC(N)=O)C(=O)CN(C(=O)CN(CCCCN)C(=O)CN(C(=O)CN(C(=O)CN(CCCCN)C(=O)CN(C(=O)CN(C(=O)CN(CCCCN)C(=O)CN(C(=O)CN(C(=O)CNCCCCN)[C@@H](C)c1ccccc1)[C@@H](C)c1ccccc1)[C@@H](C)c1ccccc1)[C@@H](C)c1ccccc1)[C@@H](C)c1ccccc1)[C@@H](C)c1ccccc1)[C@@H](C)c1ccccc1 [TM1] (H-[Nlys][Nspe][Nspe][Nlys][Nspe][Nspe][Nlys][Nspe][Nspe][Nlys][Nspe][Nspe]-NH2) ... 62.5
2) CCCCCCCCCCNCC(=O)N(CCCCN)CC(=O)N(CC(=O)N(CC(=O)N(CCCCN)CC(=O)N(CC(=O)N(CC(N)=O)[C@@H](C)c1ccccc1)[C@@H](C)c1ccccc1)[C@@H](C)c1ccccc1)[C@@H](C)c1ccccc1 [TM8] (H-[NDecylGly][Nlys][Nspe][Nspe][Nlys][Nspe][Nspe]-NH2) ... 7.8
3) C[C@@H](c1ccc(Br)cc1)N(CC(N)=O)C(=O)CN(C(=O)CN(CCCCN)C(=O)CN(C(=O)CN(C(=O)CNCCCCN)[C@@H](C)c1ccccc1)[C@@H](C)c1ccc(Br)cc1)[C@@H](C)c1ccccc1 [TM2] (H-[Nlys][Nspe][Nspe(4-Br)][Nlys][Nspe][Nspe(4-Br)]-NH2) ... 31.3
4) C[C@@H](c1ccccc1)N(CC(N)=O)C(=O)CN(CCCCN)C(=O)CN(C(=O)CN(C(=O)CN(CCCCN)C(=O)CN(C(=O)CN(C(=O)CN(CCCCN)C(=O)CN(C(=O)CN(C(=O)CNCCCCN)[C@@H](C)c1ccccc1)[C@@H](C)c1ccccc1)[C@@H](C)c1ccccc1)[C@@H](C)c1ccccc1)[C@@H](C)c1ccccc1)[C@@H](C)c1ccccc1 [TM6] (H-[Nlys][Nspe][Nspe][Nlys][Nspe][Nspe][Nlys][Nspe][Nspe][Nlys][Nspe]-NH2) ... 15.6
